# assayedTarget: NS3 genotype 1b protease (Hepatitis C virus genotype 1b, UniProt Q9WMX2, E1202G)
# Construct: Purified NS3 protease domain (amino acids 1-181) of the genotype 1b and 3a virus were generated as above; K3 hexahistidine tag (N); rTEV protease cleavage site (N)
# Sequence (Q9WMX2 1027-1207 E1202G, other chains not shown): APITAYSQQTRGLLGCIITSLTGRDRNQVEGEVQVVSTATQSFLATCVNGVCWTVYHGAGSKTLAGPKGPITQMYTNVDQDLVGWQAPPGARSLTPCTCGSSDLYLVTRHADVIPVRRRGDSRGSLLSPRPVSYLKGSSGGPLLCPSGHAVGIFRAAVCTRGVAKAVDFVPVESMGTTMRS
# experimentDescription: Ki determination, NS3 protease genotype 1b (fluorogenic depsipeptide substrate)
# experimentalParameters: NS3 protease domain genotype 1b, NS4A peptide
Please respond with reported pKi for every item in the list.
One number for each entry, as −log10 of the molar value.

Completed entries (count: 3):
compound | pKi
COc1ccc2nc3c(nc2c1)O[C@@H]1C[C@@H](C(=O)N[C@]2(C(=O)NS(=O)(=O)C4(C)CC4)C[C@H]2C(F)F)N(C1)C(=O)[C@H](C(C)(C)C)NC(=O)O[C@@H]1[C@H]2CC[C@H](C2)[C@H]1CCCCC3 [Example 5] | 10.70
CC(C)(C)[C@@H]1NC(=O)O[C@@H]2C[C@@H]3C[C@@H]3[C@H]2CCCCC(F)(F)c2nc3ccccc3nc2O[C@@H]2C[C@@H](C(=O)N[C@]3(C(=O)NS(=O)(=O)C4(C)CC4)C[C@H]3C(F)F)N(C2)C1=O [Example 17] | 11.00
COc1ccc2nc3c(nc2c1)O[C@@H]1C[C@@H](C(=O)N[C@]2(C(=O)NS(=O)(=O)C4CC4)C[C@H]2C(F)F)N(C1)C(=O)[C@H](C(C)(C)C)NC(=O)O[C@H]1[C@H](CCCCC3)C[C@H]2C[C@H]21 [Example 7] | 10.30

Hi, could you look up pKi for each item in my list?
1. CC(C)(C)[C@@H]1NC(=O)O[C@@H]2C[C@@H]3C[C@@H]3[C@H]2CC/C=C/C(F)(F)c2nc3ccc(C#N)cc3nc2O[C@@H]2C[C@@H](C(=O)N[C@]3(C(=O)NS(=O)(=O)C4(C)CC4)C[C@H]3C(F)F)N(C2)C1=O [Example 13]
2. COc1ccc2nc3c(nc2c1)O[C@@H]1C[C@@H](C(=O)N[C@]2(C(=O)NS(=O)(=O)C4CC4)C[C@H]2C(F)F)N(C1)C(=O)[C@H](C(C)(C)C)NC(=O)O[C@@H]1[C@H]2CC[C@H](C2)[C@H]1CCCCC3 [Example 4]
3. CC(C)(C)[C@@H]1NC(=O)O[C@@H]2C[C@@H]3C[C@@H]3[C@H]2CCCCC(F)(F)c2nc3ccc(OC(F)F)cc3nc2O[C@@H]2C[C@@H](C(=O)N[C@]3(C(=O)NS(=O)(=O)C4CC4)C[C@H]3C(F)F)N(C2)C1=O [Example 16]
4. CC(C)(C)[C@@H]1NC(=O)O[C@@H]2C[C@@H]3C[C@@H]3[C@H]2CCCCCc2nc3ccc(F)cc3nc2O[C@@H]2C[C@@H](C(=O)N[C@]3(C(=O)NS(=O)(=O)C4(C)CC4)C[C@H]3C(F)F)N(C2)C1=O [Example 11]
5. COc1ccc2nc3c(nc2c1)O[C@@H]1C[C@@H](C(=O)N[C@]2(C(=O)NS(=O)(=O)C4(C)CC4)C[C@H]2C(F)F)N(C1)C(=O)[C@H](C(C)(C)C)NC(=O)O[C@H]1[C@H](CCCCC3)C[C@H]2C[C@H]21 [Example 8]

[10.70, 10.70, 10.52, 10.70, 10.40]
